Measured log10(koff) of individual entries
# MEASURED ON: T1, AAV2 (adeno-associated virus 2, UniProt P03135 1-735)
# T1 construct: also called adeno-associated virus serotype 2
# MEASUREMENT DESCRIPTION: SPR, AAV amine-coupled to CM5 chip;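 further: nanobodies flowed as analyte at seven concentrations spanning 1–100 nM over immobilized AAV (500–800 RU), kinetic constants derived by fitting the binding curves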
Could you please treat all values as log10 of koff in s⁻¹?

Take a look at these entries with their results.
A4-090 (VHH) VHH: VQLQESGGGLVQPGGSLRLSCVASGSRFIINTMGWYRQAPGKQRELVATFTRGGNTNYAESVKGRFTISRDNGKSTVYLQMNSLRPEDTAVYYCHVDEVRESTWTTSNLWGQGTQVTVSS: -2.87
A4-092 (VHH) VHH: VQLQESGGGLVQTGGSLRLSCLASGSIFSINTMGWYRQRAGKQRELVATVTRAGSTNYADSVKGRFTISRDNAKNTVYLQMNSLRPEDTAVYYCHVDEIRESSWTTSNLWGQGTQVTVSS: -4.22
A4-071 (VHH) VHH: VQLQESGGGAVQAGGSLRLSCAASGSTFSINTMGWYRQAPGKQRELVATVTRGGSTNYGDFVKGRFTISRDNAKNTVYLQMNTLRPEDTAVYYCHLDEVRQSSWTTSNLWGQGTQVTVSS: -2.70
A4-076 (VHH) VHH: VQLQESGGGLVHSGGSLRLSCAASGSMFSLNTMGWYRQAPGKQRELVATITRGGGTSYADSVKGRFTISRDNAKNTVYLQMNSLRPEDTAVYYCHVDELRQSSWTTSNLWGQGTQVTVSS: -3.25
A4-089 (VHH) VHH: VQLQESGGGLVQPGGSLRLSCAASGSNFSINTMGWYRQAPGKQRELVATFTRAGNTNYADSVKGRFTISRDNGKNTVYLQMNSLRPEDTAVYYCHVDEVRDSSWTTSNLWGQGTQVTVSS: -3.10
A4-068 (VHH) VHH: VQLQESGGGLVQTGGSLRLSCAASGRAFSLNTMGWYRQAPGKWRELVATVTRGGSTNYAGSVKGRFTISRDNAKNTVYLQMNNLRPEDTAVYYCHVDEVRESSWTTSNLWGQGTQVTVSS: -2.78
A4-083 (VHH) VHH: VQLQESGGGLVQTGGSLKLSCAASGSRFSLNTMGWYRQAPRKQREFVAAVTRGGNTNYGDFVKGRFTISRDNAKNTVYLQMNSLRPEDTAVYYCHVDELRESSWTTSNLWGQGTQVTVSS: -2.46

log10(koff) for A4-064 (VHH) VHH: VQLQESGGGLVQSGGSLRLSCAASGRNFSLNTVGWYRQAPGKQRELVATVTSGGGTNYAGSVKGRFTISRDNAKNTVYLQMNSLRPEDTAVYYCHVDEVRESTWTTSNLWGQGTQVTVSS is -3.30
